# recombinant barcode read abundance (log10) values compiled below
assay_protocol: recombinant barcode read abundance after kanamycin selection (control-corrected) (log10(CPM+1)); higher = more efficient recombination; sequences stand for … in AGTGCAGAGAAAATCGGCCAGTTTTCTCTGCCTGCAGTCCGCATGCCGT…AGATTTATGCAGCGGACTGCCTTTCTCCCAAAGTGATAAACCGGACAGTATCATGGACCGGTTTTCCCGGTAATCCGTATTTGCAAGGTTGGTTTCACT; site = the 11-nt target
assay_endpoint: recombinant barcode read abundance (log10)

biosequence="GAGAGAGCTTGGGTTCTAACCTGTTGCAT (site GAGCGAGCTAT)" result=0.193
biosequence="CAAAGTCCTTGGGTTCTAACCTGTTGCAT (site CAAAGTCCTAC)" result=0.0225
biosequence="TGACCTACTTGGGTTCTAACCTGTTGCCA (site TGACCTACTTG)" result=0.133
biosequence="GCATCGGCTTGGGTTCTAACCTGTTGCCT (site GCCTCGGCTAG)" result=0.0153
biosequence="GGTTTAGCTTGGGTTCTAACCTGTTGCTA (site GGTTTAGCTTA)" result=0.106

----------
assay_protocol: recombinant UMI read abundance after kanamycin selection (control-corrected) (log10(CPM+1)); higher = more efficient recombination; extreme values may be limits of the assay; sequences stand for … in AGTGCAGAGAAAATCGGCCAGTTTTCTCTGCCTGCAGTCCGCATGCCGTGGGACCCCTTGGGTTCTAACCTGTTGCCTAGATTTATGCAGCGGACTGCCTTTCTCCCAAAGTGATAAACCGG…AGGTTGGTTTCACT; site = the 11-nt donor
Each entry gets N if its recombinant UMI read abundance (log10) stays under 0.02, and Y if its recombinant UMI read abundance (log10) is 0.02 or above.

biosequence="GTAGTTACATGGACCGGTTTTCCCGGTAATCCGTATTTGAC (site GTAGGTACTGT)" label_value=Y
biosequence="CGTGCAACATGGACCGGTTTTCCCGGTAATCCGTATTTGTT (site CGTGGAACTAA)" label_value=N
biosequence="TGCCTCGCATGGACCGGTTTTCCCGGTAATCCGTATTTGAT (site TGCCTCGCTAT)" label_value=N
biosequence="TTAGGTGCATGGACCGGTTTTCCCGGTAATCCGTATTTGTG (site TTAGATGCTCA)" label_value=Y
biosequence="GTGGAGGCATGGACCGGTTTTCCCGGTAATCCGTATTTGTC (site GTGGAGGCTCA)" label_value=Y
biosequence="GGCCACCCATGGACCGGTTTTCCCGGTAATCCGTATTTGCT (site GGCCACCCTAC)" label_value=N
biosequence="CTGGAAACATGGACCGGTTTTCCCGGTAATCCGTATTTGCG (site CTGGAAACTGG)" label_value=N
biosequence="TGTTTCCCATGGACCGGTTTTCCCGGTAATCCGTATTTGTA (site TGTTCCCCTTA)" label_value=N
biosequence="AACTGGTCATGGACCGGTTTTCCCGGTAATCCGTATTTGAC (site AACTGGTCTGT)" label_value=Y
biosequence="GGTACTGCATGGACCGGTTTTCCCGGTAATCCGTATTTGGA (site GGTACTGCTTC)" label_value=Y
biosequence="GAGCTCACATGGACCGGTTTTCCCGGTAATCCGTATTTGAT (site GAGATCACTAT)" label_value=N
biosequence="GGTAGGTCATGGACCGGTTTTCCCGGTAATCCGTATTTGTT (site GGTATGTCTAA)" label_value=N
biosequence="TGTACCCCATGGACCGGTTTTCCCGGTAATCCGTATTTGAC (site TGTACCCCTGT)" label_value=Y
biosequence="CGGGAAGCATGGACCGGTTTTCCCGGTAATCCGTATTTGAT (site CGGGAAGCTAT)" label_value=Y
biosequence="GAAGCGCCATGGACCGGTTTTCCCGGTAATCCGTATTTGTG (site AAAGCGCCTCA)" label_value=N
biosequence="TTAGCTGCATGGACCGGTTTTCCCGGTAATCCGTATTTGTG (site TTAGCTGCTAA)" label_value=N
biosequence="ATAAAGGCATGGACCGGTTTTCCCGGTAATCCGTATTTGGG (site ATAAAGGCTCC)" label_value=Y
biosequence="TCACACACATGGACCGGTTTTCCCGGTAATCCGTATTTGAT (site TCACACACTAT)" label_value=Y
biosequence="GGGCTCACATGGACCGGTTTTCCCGGTAATCCGTATTTGAT (site GCGCTCACTAT)" label_value=Y
biosequence="CCCATATCATGGACCGGTTTTCCCGGTAATCCGTATTTGAC (site CCCATATCTGC)" label_value=N
biosequence="CAAGCAGCATGGACCGGTTTTCCCGGTAATCCGTATTTGCT (site CAAGTAGCTAG)" label_value=N
biosequence="TTCTCAGCATGGACCGGTTTTCCCGGTAATCCGTATTTGAG (site TTCTCAGCTCT)" label_value=N
biosequence="ATTGTTCCATGGACCGGTTTTCCCGGTAATCCGTATTTGGT (site GTTGTTCCTAC)" label_value=N
biosequence="CTGCTAACATGGACCGGTTTTCCCGGTAATCCGTATTTGCT (site CTGCTAACTAG)" label_value=Y
biosequence="AGGAGGACATGGACCGGTTTTCCCGGTAATCCGTATTTGAA (site AGGAGGACTTT)" label_value=Y
biosequence="AGAGTACCATGGACCGGTTTTCCCGGTAATCCGTATTTGCA (site AGAGTACCTTG)" label_value=N
biosequence="GTTCGAGCATGGACCGGTTTTCCCGGTAATCCGTATTTGTA (site GTTCGAGCTTA)" label_value=Y
biosequence="ACACACCCATGGACCGGTTTTCCCGGTAATCCGTATTTGAC (site ACACACCCTGT)" label_value=Y
biosequence="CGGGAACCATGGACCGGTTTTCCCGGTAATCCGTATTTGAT (site CGGGACCCTAT)" label_value=Y
biosequence="CACAGCGCATGGACCGGTTTTCCCGGTAATCCGTATTTGTT (site CACAGCGCTAA)" label_value=Y
biosequence="GCCTTCTCATGGACCGGTTTTCCCGGTAATCCGTATTTGGG (site TCCTTCTCTCC)" label_value=N
biosequence="TCAAATTCATGGACCGGTTTTCCCGGTAATCCGTATTTGCC (site TCTAATTCTGG)" label_value=N
biosequence="TCTAATTCATGGACCGGTTTTCCCGGTAATCCGTATTTGAA (site TCTAATTCTTT)" label_value=N
biosequence="TCCCTTGCATGGACCGGTTTTCCCGGTAATCCGTATTTGGT (site TCCCTTGCTAC)" label_value=N
biosequence="ACACCTGCATGGACCGGTTTTCCCGGTAATCCGTATTTGGG (site ACACCTGCTCC)" label_value=Y
biosequence="ATCAGGCCATGGACCGGTTTTCCCGGTAATCCGTATTTGAG (site ATCAGGCCTCT)" label_value=N
